Values were extracted from the supplement of paper PMC10307832.

System: NCI-H460
Experiment Notes: relative viability (nuclei count vs DMSO), 5 days (fraction); higher = more cells survive
Test Settings: first compound 0.03162 µM
Metric: relative viability

[[record]]
compound = "CC(C)Oc1cc(Nc2nc(N[C@@H](C)c3ccc(F)cn3)ncc2Cl)n[nH]1 [AZ23] + Cc1cc(Nc2cc(N3CCN(C)CC3)nc(Sc3ccc(NC(=O)C4CC4)cc3)n2)n[nH]1 [Tozasertib] (partner 0.1 µM)"
reported = 0.518

[[record]]
compound = "CC(C)Oc1cc(Nc2nc(N[C@@H](C)c3ccc(F)cn3)ncc2Cl)n[nH]1 [AZ23] + CC(=O)c1c(C)c2cnc(Nc3ccc(N4CCNCC4)cn3)nc2n(C2CCCC2)c1=O [Palbociclib] (partner 0.5 µM)"
reported = 0.146

[[record]]
compound = "CC(C)Oc1cc(Nc2nc(N[C@@H](C)c3ccc(F)cn3)ncc2Cl)n[nH]1 [AZ23] + CS(=O)(=O)N1CCN(Cc2cc3nc(-c4cccc5[nH]ncc45)nc(N4CCOCC4)c3s2)CC1 [Pictilisib] (partner 1 µM)"
reported = 0.567

[[record]]
compound = "CC(C)Oc1cc(Nc2nc(N[C@@H](C)c3ccc(F)cn3)ncc2Cl)n[nH]1 [AZ23] + CC1(C)CCC(c2ccc(Cl)cc2)=C(CN2CCN(c3ccc(C(=O)NS(=O)(=O)c4ccc(N[C@H](CCN5CCOCC5)CSc5ccccc5)c(S(=O)(=O)C(F)(F)F)c4)cc3)CC2)C1 [Navitoclax] (partner 0.5 µM)"
reported = 1.41


====

Tested on: EKVX
Experiment Notes: relative viability (nuclei count vs DMSO), 5 days (fraction); higher = more cells survive
Test Settings: first compound 0.1265 µM
Metric: relative viability

[[record]]
compound = "C[C@@H]1CN(CC(=O)Nc2ccc3c(c2)Cc2cccc(-c4cc(=O)cc(N5CCOCC5)o4)c2S3)C[C@H](C)O1 + NC(=O)Nc1cc(-c2cccc(F)c2)sc1C(=O)N[C@H]1CCCNC1 [AZD7762] (partner 0.2 µM)"
measured_on = "EKVX"
metric = "relative viability"
reported = 0.751

[[record]]
compound = "C[C@@H]1CN(CC(=O)Nc2ccc3c(c2)Cc2cccc(-c4cc(=O)cc(N5CCOCC5)o4)c2S3)C[C@H](C)O1 + C[C@]1(O)C[C@@H](c2nc(-c3ccc4ccc(-c5ccccc5)nc4c3)c3c(N)nccn32)C1 [Linsitinib] (partner 1 µM)"
measured_on = "EKVX"
metric = "relative viability"
reported = 0.982

[[record]]
compound = "C[C@@H]1CN(CC(=O)Nc2ccc3c(c2)Cc2cccc(-c4cc(=O)cc(N5CCOCC5)o4)c2S3)C[C@H](C)O1 + CS(=O)(=O)CCNCc1ccc(-c2ccc3ncnc(Nc4ccc(OCc5cccc(F)c5)c(Cl)c4)c3c2)o1 [Lapatinib] (partner 2 µM)"
measured_on = "EKVX"
metric = "relative viability"
reported = 0.179


====

Tested on: NCI-H1915
Experiment Notes: relative viability (nuclei count vs DMSO), 5 days (fraction); higher = more cells survive
Test Settings: first compound 0.1265 µM
Metric: relative viability

[[record]]
compound = "COc1cc(N2CCC(C(N)=O)CC2)ccc1Nc1nc(N)c(Cl)c(Nc2ccccc2S(=O)(=O)C(C)C)n1 [HG-5-88-01] + CC(=O)c1c(C)c2cnc(Nc3ccc(N4CCNCC4)cn3)nc2n(C2CCCC2)c1=O [Palbociclib] (partner 0.5 µM)"
measured_on = "NCI-H1915"
reported = 0.559

[[record]]
compound = "C[C@@H]1CN(CC(=O)Nc2ccc3c(c2)Cc2cccc(-c4cc(=O)cc(N5CCOCC5)o4)c2S3)C[C@H](C)O1 + CCNC(=O)c1noc(-c2cc(C(C)C)c(O)cc2O)c1-c1ccc(CN2CCOCC2)cc1 [Luminespib] (partner 0.01 µM)"
measured_on = "NCI-H1915"
reported = 0.686

[[record]]
compound = "C[C@@H]1CN(CC(=O)Nc2ccc3c(c2)Cc2cccc(-c4cc(=O)cc(N5CCOCC5)o4)c2S3)C[C@H](C)O1 + Cc1nc(Nc2ncc(C(=O)Nc3c(C)cccc3Cl)s2)cc(N2CCN(CCO)CC2)n1 [Dasatinib] (partner 0.075 µM)"
measured_on = "NCI-H1915"
reported = 0.308

[[record]]
compound = "COc1cc(N2CCC(C(N)=O)CC2)ccc1Nc1nc(N)c(Cl)c(Nc2ccccc2S(=O)(=O)C(C)C)n1 [HG-5-88-01] + Cc1nc(NC(=O)N2CCC[C@H]2C(N)=O)sc1-c1ccnc(C(C)(C)C(F)(F)F)c1 [Alpelisib] (partner 2 µM)"
measured_on = "NCI-H1915"
reported = 1.03

[[record]]
compound = "Clc1ccc(Nc2nnc(Cc3ccncc3)c3ccccc23)cc1 [Vatalanib] + C[C@]1(O)C[C@@H](c2nc(-c3ccc4ccc(-c5ccccc5)nc4c3)c3c(N)nccn32)C1 [Linsitinib] (partner 1 µM)"
measured_on = "NCI-H1915"
reported = 1.09

[[record]]
compound = "C[C@@H]1CN(CC(=O)Nc2ccc3c(c2)Cc2cccc(-c4cc(=O)cc(N5CCOCC5)o4)c2S3)C[C@H](C)O1 + COc1cc2c(Oc3ccc(NC(=O)C4(C(=O)Nc5ccc(F)cc5)CC4)cc3F)ccnc2cc1OCCCN1CCOCC1 [Foretinib] (partner 0.25 µM)"
measured_on = "NCI-H1915"
reported = 1.13

[[record]]
compound = "COc1cc(N2CCC(C(N)=O)CC2)ccc1Nc1nc(N)c(Cl)c(Nc2ccccc2S(=O)(=O)C(C)C)n1 [HG-5-88-01] + C[C@@H](Oc1cc(-c2cnn(C3CCNCC3)c2)cnc1N)c1c(Cl)ccc(F)c1Cl [Crizotinib] (partner 1 µM)"
measured_on = "NCI-H1915"
reported = 0.885

[[record]]
compound = "C[C@@H]1CN(CC(=O)Nc2ccc3c(c2)Cc2cccc(-c4cc(=O)cc(N5CCOCC5)o4)c2S3)C[C@H](C)O1 + C[C@@H](Oc1cc(-c2cnn(C3CCNCC3)c2)cnc1N)c1c(Cl)ccc(F)c1Cl [Crizotinib] (partner 1 µM)"
measured_on = "NCI-H1915"
reported = 0.886


====

Measured relative viability values are reported for all entries that follow.
Test system: NCI-H1793
Experiment Notes: relative viability (nuclei count vs DMSO), 5 days (fraction); higher = more cells survive
Test Settings: first compound 0.1265 µM
Metric: relative viability

[[record]]
compound = "C[C@@H]1CN(CC(=O)Nc2ccc3c(c2)Cc2cccc(-c4cc(=O)cc(N5CCOCC5)o4)c2S3)C[C@H](C)O1 + CC(=O)Nc1cccc(-n2c(=O)n(C3CC3)c(=O)c3c(Nc4ccc(I)cc4F)n(C)c(=O)c(C)c32)c1 [Trametinib] (partner 0.02 µM)"
measured_on = "NCI-H1793"
reported = 0.415

[[record]]
compound = "COc1cc(N2CCC(C(N)=O)CC2)ccc1Nc1nc(N)c(Cl)c(Nc2ccccc2S(=O)(=O)C(C)C)n1 [HG-5-88-01] + CC1(C)CCC(c2ccc(Cl)cc2)=C(CN2CCN(c3ccc(C(=O)NS(=O)(=O)c4ccc(N[C@H](CCN5CCOCC5)CSc5ccccc5)c(S(=O)(=O)C(F)(F)F)c4)cc3)CC2)C1 [Navitoclax] (partner 0.5 µM)"
measured_on = "NCI-H1793"
reported = 0.409

[[record]]
compound = "Clc1ccc(Nc2nnc(Cc3ccncc3)c3ccccc23)cc1 [Vatalanib] + CS(=O)(=O)N1CCN(Cc2cc3nc(-c4cccc5[nH]ncc45)nc(N4CCOCC4)c3s2)CC1 [Pictilisib] (partner 1 µM)"
measured_on = "NCI-H1793"
reported = 0.326

[[record]]
compound = "C[C@@H]1CN(CC(=O)Nc2ccc3c(c2)Cc2cccc(-c4cc(=O)cc(N5CCOCC5)o4)c2S3)C[C@H](C)O1 + C[C@]1(O)C[C@@H](c2nc(-c3ccc4ccc(-c5ccccc5)nc4c3)c3c(N)nccn32)C1 [Linsitinib] (partner 1 µM)"
measured_on = "NCI-H1793"
reported = 0.695


====

System: NCI-H1666
Experiment Notes: relative viability (nuclei count vs DMSO), 5 days (fraction); higher = more cells survive
Test Settings: first compound 0.4 µM
Metric: relative viability

[[record]]
molecule = "Clc1ccc(Nc2nnc(Cc3ccncc3)c3ccccc23)cc1 [Vatalanib] + Cc1nc(Nc2ncc(C(=O)Nc3c(C)cccc3Cl)s2)cc(N2CCN(CCO)CC2)n1 [Dasatinib] (partner 0.075 µM)"
reported = 0.883

[[record]]
molecule = "COc1cc(N2CCC(C(N)=O)CC2)ccc1Nc1nc(N)c(Cl)c(Nc2ccccc2S(=O)(=O)C(C)C)n1 [HG-5-88-01] + CC1(C)CCC(c2ccc(Cl)cc2)=C(CN2CCN(c3ccc(C(=O)NS(=O)(=O)c4ccc(N[C@H](CCN5CCOCC5)CSc5ccccc5)c(S(=O)(=O)C(F)(F)F)c4)cc3)CC2)C1 [Navitoclax] (partner 0.5 µM)"
reported = 1.01

[[record]]
molecule = "C[C@@H]1CN(CC(=O)Nc2ccc3c(c2)Cc2cccc(-c4cc(=O)cc(N5CCOCC5)o4)c2S3)C[C@H](C)O1 + CS(=O)(=O)CCNCc1ccc(-c2ccc3ncnc(Nc4ccc(OCc5cccc(F)c5)c(Cl)c4)c3c2)o1 [Lapatinib] (partner 2 µM)"
reported = 0.665

[[record]]
molecule = "C[C@@H]1CN(CC(=O)Nc2ccc3c(c2)Cc2cccc(-c4cc(=O)cc(N5CCOCC5)o4)c2S3)C[C@H](C)O1 + Cc1nc(NC(=O)N2CCC[C@H]2C(N)=O)sc1-c1ccnc(C(C)(C)C(F)(F)F)c1 [Alpelisib] (partner 2 µM)"
reported = 0.964

[[record]]
molecule = "COc1cc(N2CCC(C(N)=O)CC2)ccc1Nc1nc(N)c(Cl)c(Nc2ccccc2S(=O)(=O)C(C)C)n1 [HG-5-88-01] + COc1cccc2cc(-c3nc([C@H]4CC[C@H](C(=O)O)CC4)n4ncnc(N)c34)[nH]c12 [OSI-027] (partner 0.5 µM)"
reported = 0.692

[[record]]
molecule = "Clc1ccc(Nc2nnc(Cc3ccncc3)c3ccccc23)cc1 [Vatalanib] + CC1(C)CCC(c2ccc(Cl)cc2)=C(CN2CCN(c3ccc(C(=O)NS(=O)(=O)c4ccc(N[C@H](CCN5CCOCC5)CSc5ccccc5)c(S(=O)(=O)C(F)(F)F)c4)cc3)CC2)C1 [Navitoclax] (partner 0.5 µM)"
reported = 0.829

[[record]]
molecule = "Clc1ccc(Nc2nnc(Cc3ccncc3)c3ccccc23)cc1 [Vatalanib] + C[C@]1(O)C[C@@H](c2nc(-c3ccc4ccc(-c5ccccc5)nc4c3)c3c(N)nccn32)C1 [Linsitinib] (partner 1 µM)"
reported = 0.923

[[record]]
molecule = "COc1cc(N2CCC(C(N)=O)CC2)ccc1Nc1nc(N)c(Cl)c(Nc2ccccc2S(=O)(=O)C(C)C)n1 [HG-5-88-01] + NC(=O)Nc1cc(-c2cccc(F)c2)sc1C(=O)N[C@H]1CCCNC1 [AZD7762] (partner 0.2 µM)"
reported = 0.779

[[record]]
molecule = "COc1cc(N2CCC(C(N)=O)CC2)ccc1Nc1nc(N)c(Cl)c(Nc2ccccc2S(=O)(=O)C(C)C)n1 [HG-5-88-01] + N=C(N)NC(=N)NCCc1ccccc1 [Phenformin] (partner 250 µM)"
reported = 0.544

